Molecular target: T1, Human BCAM protein (human, UniProt P50895 32-547, limits assumed)
T1 construct: Protein used in ELISA; also called BCAM (ELISA antigen)
T1 sequence: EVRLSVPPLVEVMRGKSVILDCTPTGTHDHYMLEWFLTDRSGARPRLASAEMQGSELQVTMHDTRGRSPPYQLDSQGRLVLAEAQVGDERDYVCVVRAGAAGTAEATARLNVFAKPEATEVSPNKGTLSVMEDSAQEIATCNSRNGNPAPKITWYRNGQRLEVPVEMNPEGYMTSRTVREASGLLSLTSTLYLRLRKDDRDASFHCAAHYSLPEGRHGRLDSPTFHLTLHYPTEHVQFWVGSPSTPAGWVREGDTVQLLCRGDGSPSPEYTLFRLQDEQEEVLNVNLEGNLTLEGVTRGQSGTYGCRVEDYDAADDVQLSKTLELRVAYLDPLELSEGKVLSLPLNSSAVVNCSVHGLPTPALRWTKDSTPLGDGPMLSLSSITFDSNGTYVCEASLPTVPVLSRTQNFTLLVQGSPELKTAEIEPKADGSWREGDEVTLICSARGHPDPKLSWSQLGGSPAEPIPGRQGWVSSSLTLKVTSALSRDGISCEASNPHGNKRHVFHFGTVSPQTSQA
Assay: binding ELISA on human BCAM protein, IgG at log10 about 1.1 to 3.0 nM, OD450nm
value kind: binding result

1. MAB17 (antibody, human IgG1, V domains shown, also called clone 17) VH: EVQLLESGGGLVQPGGSLRLSCAASGFSVTSYGVHWIRQAPGKGLEWLGVIWSGGSTDYNAAFISRLTISKDNSKNTVYFQMNSLRAEDTAVYYCARAGDYNYDGFAYWGQGTLVTVSS VL: DIQMTQSPSSLSASVGDRVTITCQASQSVSFLYWYQQRPGKAPRLLIYDTSNLASGVPSRFSGSGSGTSYTFTISSLQPEDIATYYCQQWSTYPLTFGQGTKVEIK    binds
2. MAB14 (antibody, human IgG1, V domains shown, also called clone 14) VH: EVQLLESGGGLVQPGGSLRLSCAASGFSVTSYGVHWIRQAPGKGLEWLGVIWSGGSTDYNAAFISRLTISKDNSKNTVYFQMNSLRAEDTAVYYCARAGDANYDGFAYWGQGTLVTVSS VL: DIQMTQSPSSLSASVGDRVTITCQASQSVSFLYWYQQRPGKAPRLLIYDTSNLASGVPSRFSGSGSGTSYTFTISSLQPEDIATYYCQQWSTYPLTFGQGTKVEIK    binds
